Test system: MCF7-Y537S cells
Test: In vitro anti-proliferation assay (CellTiter-Glo viability), MCF7-Y537S cells
Type: cell-based
Conditions: viability on day 8, relative IC50
pIC50: −log10 of the molar value.
readoutKind: pIC50

a: CN(C)C(=O)/C=C/CN1CCC(Cc2ccc(C3=C(c4ccc(Cl)cc4Cl)CCCc4cc(C(=O)O)ccc43)cc2)C1 (single isomer, unassigned; isomer 1) [Compound 18]
b: CN(C)C(=O)/C=C/CN1CCC(Cc2ccc(C3=C(c4ccc(Cl)cc4Cl)CCCc4cc(C(=O)O)ccc43)cc2)C1 (single isomer, unassigned; isomer 2) [Compound 19]
Determine, for a and b , which has the greater value of pIC50. Mark your selection by writing its label.
b
(b: 7.68, a: 7.23)

FYI, the data here is from patent US20250250231A1.
